- SYSTEM_NAME: Ubiquitin carboxyl-terminal hydrolase 28 (Homo sapiens)
- Sequence (Q96RU2 whole entry): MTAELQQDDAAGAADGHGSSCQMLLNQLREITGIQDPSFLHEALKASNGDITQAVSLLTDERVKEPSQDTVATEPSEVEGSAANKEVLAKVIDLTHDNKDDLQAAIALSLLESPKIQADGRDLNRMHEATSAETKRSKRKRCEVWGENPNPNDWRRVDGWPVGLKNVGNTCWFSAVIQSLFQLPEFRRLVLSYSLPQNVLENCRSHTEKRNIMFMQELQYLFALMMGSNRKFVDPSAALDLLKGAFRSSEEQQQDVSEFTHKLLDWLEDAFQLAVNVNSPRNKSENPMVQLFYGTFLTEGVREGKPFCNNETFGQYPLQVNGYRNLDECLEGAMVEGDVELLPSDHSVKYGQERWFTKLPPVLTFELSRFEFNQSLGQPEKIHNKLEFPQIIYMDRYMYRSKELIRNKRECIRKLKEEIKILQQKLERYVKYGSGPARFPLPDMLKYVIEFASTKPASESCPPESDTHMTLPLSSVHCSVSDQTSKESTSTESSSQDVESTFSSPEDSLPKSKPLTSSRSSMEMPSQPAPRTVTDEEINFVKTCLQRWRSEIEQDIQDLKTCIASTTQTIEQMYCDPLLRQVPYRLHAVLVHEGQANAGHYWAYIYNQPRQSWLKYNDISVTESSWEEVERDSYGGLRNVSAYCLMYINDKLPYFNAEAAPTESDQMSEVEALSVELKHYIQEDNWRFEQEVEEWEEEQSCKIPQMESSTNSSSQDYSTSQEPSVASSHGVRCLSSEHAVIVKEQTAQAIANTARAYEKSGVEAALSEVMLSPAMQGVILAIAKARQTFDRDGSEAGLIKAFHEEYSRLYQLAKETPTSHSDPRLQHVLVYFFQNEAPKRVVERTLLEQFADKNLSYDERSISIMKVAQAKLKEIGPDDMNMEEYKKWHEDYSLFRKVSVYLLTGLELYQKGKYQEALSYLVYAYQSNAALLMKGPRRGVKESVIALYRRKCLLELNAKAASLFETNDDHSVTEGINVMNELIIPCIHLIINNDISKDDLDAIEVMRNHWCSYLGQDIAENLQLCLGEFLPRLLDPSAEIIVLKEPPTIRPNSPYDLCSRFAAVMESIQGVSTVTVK
IC50 values by entry

Before answering, review these 5 worked examples.
Cc1ccc2c(N)c(C(=O)NCCc3ccc(N4CCNCC4)c(-c4ccccc4Cl)c3)sc2n1; 200 to 2000 nM
Cc1ccc2c(N)c(C(=O)NCCc3ccc(N4CCC(NC5CC5)C4)cc3)sc2n1 (stereo unspecified); 200 to 2000 nM
COCCn1cc(-c2cc(CCNC(=O)c3sc4nc(C)ccc4c3N)ccc2N2CCNCC2)cn1; 2000 to 10000 nM
Cc1ccc2c(N)c(C(=O)NCCc3ccc(N4CCN[C@H](C)C4)cc3)sc2n1; < 200 nM
Cc1ccc2c(N)c(C(=O)NCCc3ccc(N4CCCC5(CCNC5)C4)cc3)sc2n1 (stereo unspecified); 200 to 2000 nM

INPUT: Requested field: IC50. Item: CN[C@H]1CCN(c2ccc(CCNC(=O)c3sc4nc(C)ccc4c3N)cc2)C1
OUTPUT: 200 to 2000 nM

INPUT: Can you handle CC(=O)Nc1ccc2c(N)c(C(=O)NCCc3ccc(N4CCNCC4)cc3)sc2n1 next?
OUTPUT: 2000 to 10000 nM

INPUT: Can you handle Cc1ccc2c(N)c(C(=O)NCCc3ccc(N[C@@H]4CCNC4)cc3)sc2n1 next?
OUTPUT: < 200 nM

====

Target or system Ubiquitin carboxyl-terminal hydrolase 28 (Homo sapiens); recorded quantity IC50.

INPUT: Requested field: IC50. Item: Cc1ccc2c(N)c(C(=O)NCCc3ccc(N4CC5(CCCN5)C4)cc3)sc2n1
OUTPUT: < 200 nM

INPUT: Can you handle Cc1ccc2c(N)c(C(=O)NCCc3ccc(N4CCNCC4)c(-c4cccc(Cl)c4)c3)sc2n1 next?
OUTPUT: 2000 to 10000 nM

INPUT: Can you handle Cc1ccc(-c2cc(CCNC(=O)c3sc4nc(C)ccc4c3N)ccc2N2CCNCC2)cc1 next?
OUTPUT: 2000 to 10000 nM

INPUT: Can you handle Cc1ccc2c(N)c(C(=O)NCCc3ccc(N4CCCC5(CCCNC5)C4)cc3)sc2n1 (stereo not given) next?
OUTPUT: 200 to 2000 nM

INPUT: Can you handle Cc1ccc2c(N)c(C(=O)NCCc3ccc(N4CC5(CNC5)C4)cc3)sc2n1 next?
OUTPUT: 200 to 2000 nM

====

- SYSTEM_NAME: Ubiquitin carboxyl-terminal hydrolase 25 (Homo sapiens, UniProt Q9UHP3)
- Sequence (Q9UHP3 whole entry): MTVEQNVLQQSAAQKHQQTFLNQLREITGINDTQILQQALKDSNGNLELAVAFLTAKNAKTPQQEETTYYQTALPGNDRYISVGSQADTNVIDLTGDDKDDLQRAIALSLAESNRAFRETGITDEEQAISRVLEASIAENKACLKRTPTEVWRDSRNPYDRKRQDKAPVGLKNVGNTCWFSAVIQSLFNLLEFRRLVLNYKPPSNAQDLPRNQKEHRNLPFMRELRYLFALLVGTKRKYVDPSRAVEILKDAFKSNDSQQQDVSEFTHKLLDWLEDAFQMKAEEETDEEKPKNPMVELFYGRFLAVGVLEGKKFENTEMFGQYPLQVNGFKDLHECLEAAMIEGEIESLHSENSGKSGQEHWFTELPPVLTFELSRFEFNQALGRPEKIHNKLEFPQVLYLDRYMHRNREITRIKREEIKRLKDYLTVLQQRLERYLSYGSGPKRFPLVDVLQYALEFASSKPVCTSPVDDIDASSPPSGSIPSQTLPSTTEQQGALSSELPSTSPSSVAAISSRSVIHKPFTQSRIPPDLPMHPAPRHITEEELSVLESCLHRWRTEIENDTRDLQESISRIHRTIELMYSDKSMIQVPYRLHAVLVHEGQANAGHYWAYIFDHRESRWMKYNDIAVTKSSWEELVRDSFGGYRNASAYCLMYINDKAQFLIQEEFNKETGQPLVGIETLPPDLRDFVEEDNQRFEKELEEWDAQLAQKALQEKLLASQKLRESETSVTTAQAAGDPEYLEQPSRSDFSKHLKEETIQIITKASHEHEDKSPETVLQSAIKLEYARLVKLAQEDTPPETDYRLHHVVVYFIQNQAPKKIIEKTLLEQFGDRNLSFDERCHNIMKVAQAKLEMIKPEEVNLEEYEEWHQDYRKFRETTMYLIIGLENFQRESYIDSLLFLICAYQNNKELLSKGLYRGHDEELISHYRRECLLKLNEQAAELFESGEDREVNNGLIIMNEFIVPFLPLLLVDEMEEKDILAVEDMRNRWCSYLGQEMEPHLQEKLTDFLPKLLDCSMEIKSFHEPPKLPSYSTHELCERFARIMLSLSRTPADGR
- ASSAY_INFO: Inhibition of recombinant C-terminal 6-His tagged human USP25 using ubiquitin-rhodamine 110 as substrate preincubated for 30 mins followed by substrate addition and measured after 45 mins by fluorescence based assay
pIC50: −log10 of the molar value.
ENDPOINT_NAME: pIC50

Before answering, review these 5 worked examples.
Cc1ccc2c(N)c(C(=O)NCCc3ccc(N4CC5(CCCN5)C4)cc3)sc2n1; 5.70 to 6.70
Cc1ccc2c(N)c(C(=O)NCCc3ccc(N4C[C@H]5CNC[C@H]5C4)cc3)sc2n1; 5.70 to 6.70
Cc1ccc2c(N)c(C(=O)NCCc3ccc(N4CCNCC4)c(-c4ccccc4C)c3)sc2n1; 5.00 to 5.70
Cc1cccc(-c2cc(CCNC(=O)c3sc4nc(C)ccc4c3N)ccc2N2CCNCC2)c1; 5.00 to 5.70
Cc1ccc2c(N)c(C(=O)NCCc3ccc(N4CCN[C@@H](C(C)C)C4)cc3)sc2n1; 5.70 to 6.70

Would you kindly look at the next entry?
INPUT: Requested field: pIC50. Item: Cc1ccc2c(N)c(C(=O)NCCc3ccc(N4CCC(NC5CC5)C4)cc3)sc2n1 (centres undefined)
OUTPUT: 5.70 to 6.70

====

- SYSTEM_NAME: Ubiquitin carboxyl-terminal hydrolase 25 (Homo sapiens, UniProt Q9UHP3)
- ASSAY_INFO: Inhibition of recombinant C-terminal 6-His tagged human USP25 using ubiquitin-rhodamine 110 as substrate preincubated for 30 mins followed by substrate addition and measured after 45 mins by fluorescence based assay
pIC50: −log10 of the molar value.
pIC50 values by entry

Before answering, review these 6 worked examples.
Cc1ccc2c(N)c(C(=O)NCCc3ccc(N4CCNCC4)c(-c4cnn(C)c4)c3)sc2n1; 5.00 to 5.70
Cc1ccc2c(N)c(C(=O)NCCc3ccc(N4CCC5(CCNC5)C4)cc3)sc2n1 (centres undefined); 5.00 to 5.70
Cc1ccc2c(N)c(C(=O)NCCc3ccc(N4CCCC5(CCCNC5)C4)cc3)sc2n1 (centres undefined); 5.70 to 6.70
CN[C@H]1CCN(c2ccc(CCNC(=O)c3sc4nc(C)ccc4c3N)cc2)C1; 5.70 to 6.70
Cc1ccc2c(N)c(C(=O)NCCc3ccc(N4CCNC[C@H]4C)cc3)sc2n1; > 6.70
Cc1ccc2c(N)c(C(=O)NCCc3ccc(N4CCC5(CCNCC5)C4)cc3)sc2n1; 5.00 to 5.70

INPUT: State its pIC50 on Ubiquitin carboxyl-terminal hydrolase 25 (Homo sapiens, UniProt Q9UHP3): Cc1ccc2c(N)c(C(=O)NCCc3ccc(N4CCNCC4)c(-c4ccc(F)cc4)c3)sc2n1
OUTPUT: 5.00 to 5.70

INPUT: Can you handle Cc1ccc2c(N)c(C(=O)NCCc3ccc(N4CCCNCC4)cc3)sc2n1 next?
OUTPUT: 5.70 to 6.70

INPUT: Can you handle Cc1ccc2c(N)c(C(=O)NCCc3ccc(N4CCNCC4)c(-c4ccccc4Cl)c3)sc2n1 next?
OUTPUT: 5.70 to 6.70

====

- SYSTEM_NAME: Ubiquitin carboxyl-terminal hydrolase 25 (Homo sapiens, UniProt Q9UHP3)
- ASSAY_INFO: Inhibition of recombinant C-terminal 6-His tagged human USP25 using ubiquitin-rhodamine 110 as substrate preincubated for 30 mins followed by substrate addition and measured after 45 mins by fluorescence based assay
IC50 values by entry

Before answering, review these 4 worked examples.
Cc1ccc2c(N)c(C(=O)NCCc3ccc(N4CCN[C@H](C(C)C)C4)cc3)sc2n1; 200 to 2000 nM
Cc1ccc2c(N)c(C(=O)NCCc3ccc(N4CCNCC4)c(-c4cccc(Cl)c4)c3)sc2n1; 2000 to 10000 nM
Cc1ccc2c(N)c(C(=O)NCCc3ccc(N4CCNCC4)c(-c4cccc(F)c4)c3)sc2n1; 2000 to 10000 nM
Cc1ccc2c(N)c(C(=O)NCCc3ccc(N(C)CC4CCCNC4)cc3)sc2n1 (stereo not given); 200 to 2000 nM

Would you kindly look at the next entry?
INPUT: Requested field: IC50. Item: Cc1ccc2c(N)c(C(=O)NCCc3ccc(N4CCCC5(CCNC5)C4)cc3)sc2n1 (stereo not given)
OUTPUT: 200 to 2000 nM
